Reference source for all entries: patent US6914045B2

Measured MIC Enterococcus faecalis (GC 6189), listed per entry for reference.
# Tested on: Enterococcus sp.
# Test protocol: in vitro antibacterial evaluation, MIC by broth dilution
# Format: cell-based
# Condition summary: broth dilution, 18 hours at 35° C.
Could you give me the number in µg/mL? Just the number is fine.

Compound	MIC Enterococcus faecalis (GC 6189) [µg/mL]
COc1ccc(COCC2OC(OC3C(CO)OC(Oc4ccc(CC5NC(=O)C(C(C)c6ccccc6)NC(=O)CNC(=O)C(CO)NC(=O)C(C(O)C6CNC(=N)N6C6OC(CO)C(O)C(O)C6O)NC(=O)C(C(O)C6CNC(=N)N6)NC5=O)cc4)C(O)C3O)C(O)C(O)C2O)cc1OCc1ccccc1 (centres unmarked) [Example 239]	4
COc1ccc(COCC2OC(OC3C(CO)OC(Oc4ccc(CC5NC(=O)C(C(C)c6ccccc6)NC(=O)CNC(=O)C(CO)NC(=O)C(C(O)C6CNC(=N)N6C6OC(CO)C(O)C(O)C6O)NC(=O)C(C(O)C6CNC(=N)N6)NC5=O)cc4)C(O)C3O)C(O)C(O)C2O)cc1 (centres unmarked) [Example 232]	64
CC(c1ccccc1)C1NC(=O)CNC(=O)C(CO)NC(=O)C(C(O)C2CNC(=N)N2C2OC(CO)C(O)C(O)C2O)NC(=O)C(C(O)C2CNC(=N)N2)NC(=O)C(Cc2ccc(OC3OC(CO)C(OC4OC5COC(c6cccc(Oc7cccc(C(F)(F)F)c7)c6)OC5C(O)C4O)C(O)C3O)cc2)NC1=O (centres unmarked) [Example 184]	32
CCCCN1CC(C(O)C2NC(=O)C(C(O)C3CNC(=N)N3)NC(=O)C(Cc3ccc(OC4OC(CO)C(OC5OC6COC7(OC6C(O)C5O)C5CC6CC(C5)CC7C6)C(O)C4O)cc3)NC(=O)C(C(C)c3ccccc3)NC(=O)CNC(=O)C(CO)NC2=O)N(C2OC(CO)C(O)C(O)C2O)C1=N (centres unmarked) [Example 224]	4
CC(c1ccccc1)C1NC(=O)CNC(=O)C(CO)NC(=O)C(CC2CN(Cc3ccccc3)C(=N)N2C2OC(CO)C(O)C(O)C2O)NC(=O)C(CC2CNC(=N)N2)NC(=O)C(Cc2ccc(OC3OC(CO)C(OC4OC5COC6(OC5C(O)C4O)C4CC5CC(C4)CC6C5)C(O)C3O)cc2)NC1=O (centres unmarked) [Example 80]	64
CC(c1ccccc1)C1NC(=O)CNC(=O)C(CO)NC(=O)C(C(O)C2CNC(=N)N2C2OC(CO)C(O)C(O)C2O)NC(=O)C(C(O)C2CNC(=N)N2)NC(=O)C(Cc2ccc(OC3OC(CO)C(OC4OC5COC(c6ccc(C(=O)c7ccc(I)cc7)cc6)OC5C(O)C4O)C(O)C3O)cc2)NC1=O (centres unmarked) [Example 186]	1
CC(c1ccccc1)C1NC(=O)CNC(=O)C(CO)NC(=O)C(C(O)C2CN(Cc3ccc(C(F)(F)F)cc3)C(=N)N2C2OC(CO)C(O)C(O)C2O)NC(=O)C(C(O)C2CNC(=N)N2)NC(=O)C(Cc2ccc(OC3OC(CO)C(OC4OC5COC6(OC5C(O)C4O)C4CC5CC(C4)CC6C5)C(O)C3O)cc2)NC1=O (centres unmarked) [Example 226]	32

Missing value: MIC Enterococcus faecalis (GC 6189), Enterococcus sp., entry CC(c1ccccc1)C1NC(=O)CNC(=O)C(CO)NC(=O)C(C(O)C2CNC(=N)N2C2OC(CO)C(O)C(O)C2O)NC(=O)C(C(O)C2CNC(=N)N2)NC(=O)C(Cc2ccc(OC3OC(CO)C(OC4OC(COCC=Cc5ccc(N(C)C)cc5)C(O)C(O)C4O)C(O)C3O)cc2)NC1=O (centres unmarked) [Example 243] . Fill in?
64
